- system.under.test: CDK2-cycline E (Homo sapiens, UniProt P24941)
- protocol.summary: Kinase assay (radioactive phosphate incorporation), CDK2-cyclin E
- Assay type: biochemical
- details: read-out: Kinase Inhibition pIC50 CDK2-cycline E (converted)
measured.attribute: IC50 (nM)

A: Cc1nc(C)c(-c2ccnc(Nc3ccc(S(=O)(=O)NCCO)cc3)n2)s1 [Compound 69]
B: CCOC(=O)Cc1cccc(NS(=O)(=O)c2ccc(Nc3nccc(-c4sc(NC)nc4C)n3)cc2)c1 [Compound 62]
C: CNc1nc(C)c(-c2ccnc(Nc3ccc(S(C)(=O)=O)cc3)n2)s1 [Compound 20]
D: CC(=O)N1CCN(c2ccc(Nc3nccc(-c4sc(-c5cccs5)nc4C)n3)cc2)CC1 [Compound 131]
Give the ascending ranking of the items by reported IC50. Sort the labels as requested; that list is your answer.
C, A, B, D
(C: 2.51 nM, A: 10 nM, B: 79.4 nM, D: 2510 nM)
